Test system: ALK
Condition Context: concentration: 1 μM,replicates: in singlicate; n = 1;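 note: KINOMEscan kinase panel screen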
Reported values of %Inh for individual entries
Give your result in % as a bare value.

>>> data_value("O=C(NCCNc1ccnc(NCc2ccc(F)cc2)n1)c1cc2ccccc2s1")
35
>>> data_value("Cc1ccc2c(-c3ccncc3)c(-c3ccc(F)cc3)nn2c1.Cl")
9
>>> data_value("Cl.Oc1cc(-c2nc(-c3ccccc3)[nH]c2-c2ccncc2)ccc1Cl")
0
>>> data_value("CC(C)Nc1cc(-c2ccc3c(N)n[nH]c3c2)nc(N)n1")
19
>>> data_value("Cl.Cl.NC[C@H](CC1CCCCC1)NC(=O)c1cc(Br)c(-c2ccnc3[nH]ccc23)s1")
46
>>> data_value("COc1ccc(C[C@@H](CN)NC(=O)c2cc(Br)c(-c3ccnc4[nH]ccc34)s2)cc1.Cl.Cl")
63
>>> data_value("Cl.Cl.Nc1nc(-c2ccc3c(N)n[nH]c3c2)cc(N2CCCC(NC(=O)c3ccccc3)C2)n1 (stereo not drawn)")
35
>>> data_value("Cc1ccc(-n2nc(C(C)(C)C)cc2NC(=O)Nc2ccc(OCCN3CCOCC3)c3ccccc23)cc1")
0
>>> data_value("Cl.Cl.NC[C@H](Cc1ccc(C(F)(F)F)cc1)NC(=O)c1cc(Br)c(-c2ccnc3[nH]ccc23)s1")
29
>>> data_value("Cc1cc2cn[nH]c2cc1-c1cccc2c(N)c(C(N)=O)nnc12")
67

Query: Fill: %Inh (ALK) for this molecule CC(C)N1C(=O)Cc2cc(Nc3ncc(C(F)(F)F)c(NCc4cccc(S(C)(=O)=O)c4)n3)ccc21
Reply: 0

Query: Fill: %Inh (ALK) for this molecule Cc1occc1-c1nc(N)c(OC[C@@H](N)Cc2c[nH]c3ccccc23)cc1-c1cc2c(C)n[nH]c2cn1
Reply: 3

====

Test system: MKNK2
Condition Context: concentration: 1 μM,replicates: in singlicate; n = 1
Metric: %Inh (%)
Give your result in % as a bare value.

Worked cases, %Inh given:
>>> data_value("Cc1ccc(-n2nc(C(C)(C)C)cc2NC(=O)Nc2ccc(OCCN3CCOCC3)c3ccccc23)cc1")
0
>>> data_value("CC(C)N1C(=O)Cc2cc(Nc3ncc(C(F)(F)F)c(NCc4cccc(S(C)(=O)=O)c4)n3)ccc21")
45
>>> data_value("O=C(NCCNc1ccnc(NCc2ccc(F)cc2)n1)c1cc2ccccc2s1")
12

Query: Using the record for Cc1cc2cn[nH]c2cc1-c1cccc2c(N)c(C(N)=O)nnc12 , state its measured %Inh.
Reply: 23

Query: Using the record for CCn1c(-c2nonc2N)nc2c(C#CC(C)(C)O)nc(OCCN)cc21.Cl.Cl , state its measured %Inh.
Reply: 0

Query: Using the record for C[C@H]1Oc2cc(cnc2N)-c2c(nn(C)c2C#N)CN(C)C(=O)c2ccc(F)cc21 , state its measured %Inh.
Reply: 0

Query: Using the record for CCN(CC)CCOc1ccc(Nc2ncc3cc(-c4c(Cl)cccc4Cl)c(=O)n(C)c3n2)cc1 , state its measured %Inh.
Reply: 26

Query: Using the record for Cl.Cl.Nc1nc(-c2ccc3c(N)n[nH]c3c2)cc(N2CCCC(NC(=O)c3ccccc3)C2)n1 (centres unmarked) , state its measured %Inh.
Reply: 27

====

System: LCK
Condition Context: concentration: 1 μM,replicates: in singlicate; n = 1
Reported values of %Inh for individual entries
Give your result in % as a bare value.

Worked cases, %Inh given:
>>> data_value("Cc1cc(C(=O)Nc2ccc(Oc3ccc4nc(NC(=O)C5CC5)cn4n3)cc2)nn1-c1ccccc1")
92.3
>>> data_value("C[C@H]1Oc2cc(cnc2N)-c2c(nn(C)c2C#N)CN(C)C(=O)c2ccc(F)cc21")
49
>>> data_value("Nc1nc(Nc2ccccc2)cc(-c2ccc3c(N)n[nH]c3c2)n1")
0
>>> data_value("CC(C)N1C(=O)Cc2cc(Nc3ncc(C(F)(F)F)c(NCc4cccc(S(C)(=O)=O)c4)n3)ccc21")
0
>>> data_value("Cl.Oc1cc(-c2nc(-c3ccccc3)[nH]c2-c2ccncc2)ccc1Cl")
70
>>> data_value("Cc1occc1-c1nc(N)c(OC[C@@H](N)Cc2c[nH]c3ccccc23)cc1-c1cc2c(C)n[nH]c2cn1")
98.5

Query: Using the record for O=C(NCCCN1CCOC1=O)c1cnc(NCc2cc(Cl)ccc2Cl)nc1NC1CCCC1 , state its measured %Inh.
Reply: 23

Query: Using the record for C[C@@H]1CCN(C(=O)CC#N)C[C@@H]1N(C)c1ncnc2[nH]ccc12 , state its measured %Inh.
Reply: 51
